SYSTEM UNDER TEST: EGFR on the surface of human tumour cells (A431, H292) (human, UniProt P00533 25-1210)
ASSAY TEXT: cell-based or functional assay
Form field: pEGFR IC50 (one value per entry).
Give just the numeric value; nM need not be written.

Examples from the recorded data:
// pEGFR IC50 lookup, key: I1-GS10-E5 pegylated without the 6HIS tag (designed binder, PEG on the Cys of the C-terminal Cys tail, Whether the D-to-E change in the tail of the first monomer applies to this construct is not clear; also called I1-GS10-E5 pegylated(1)) MGVSDVPRDLEVVAATPTSLLISWSARLKVARYYRITYGETGGNSPVQEFTVPKNVYTATISGLKPGVDYTITVYAVTRFRDYQPISINYRTEIDKGSGSGSGSGSGSGSGSGSGSVSDVPRDLEVVAATPTSLLISWWAPVDRYQYYRITYGETGGNSPVQEFTVPRDVYTATISGLKPGVDYTITVYAVTDYKPHADGPHTYHESPISINYRTEIDKPCQ 30

Entry I1-GS10-E5(S91C) pegylated (designed binder, PEG on Cys at position 91 of E5 (position of SEQ ID NO: 1), also called I1-GS10-E5(S91C)(8)) MGVSDVPRDLEVVAATPTSLLISWSARLKVARYYRITYGETGGNSPVQEFTVPKNVYTATISGLKPGVDYTITVYAVTRFRDYQPISINYRTEIEKGSGSGSGSGSGSGSGSGSGSVSDVPRDLEVVAATPTSLLISWWAPVDRYQYYRITYGETGGNSPVQEFTVPRDVYTATISGLKPGVDYTITVYAVTDYKPHADGPHTYHESPICINYRTEHHHHHH has what pEGFR IC50? 22.6

Further cases:
pEGFR IC50 for I1(S62C)-GS10-E5 pegylated (designed binder, PEG on Cys at position 62 of I1 (position of SEQ ID NO: 1), also called I1(S62C)-GS10-E5(5)) MGVSDVPRDLEVVAATPTSLLISWSARLKVARYYRITYGETGGNSPVQEFTVPKNVYTATICGLKPGVDYTITVYAVTRFRDYQPISINYRTEIEKGSGSGSGSGSGSGSGSGSGSVSDVPRDLEVVAATPTSLLISWWAPVDRYQYYRITYGETGGNSPVQEFTVPRDVYTATISGLKPGVDYTITVYAVTDYKPHADGPHTYHESPISINYRTEHHHHHH ? 21

What does the data say about its pEGFR IC50? Entry: I1-GS10-E5-GSGC pegylated (designed binder, PEG on the Cys of the GSGC tail of E5, alternative clone of I1-GS10-E5 pegylated; also called I1-GS10-E5-GSGC(4)) MGVSDVPRDLEVVAATPTSLLISWSARLKVARYYRITYGETGGNSPVQEFTVPKNVYTATISGLKPGVDYTITVYAVTRFRDYQPISINYRTEIEKGSGSGSGSGSGSGSGSGSGSVSDVPRDLEVVAATPTSLLISWWAPVDRYQYYRITYGETGGNSPVQEFTVPRDVYTATISGLKPGVDYTITVYAVTDYKPHADGPHTYHESPISINYRTEGSGCHHHHHH 28.7

Which value of pEGFR IC50 has been reported for I1-GSGCGS8-E5 pegylated (designed binder, PEG on the Cys of the GSGCGS8 linker, alternative clone of I1-GS10-E5 pegylated; tail of first monomer EIEK (D to E); also called I1-GSGCGS8-E5(3)) MGVSDVPRDLEVVAATPTSLLISWSARLKVARYYRITYGETGGNSPVQEFTVPKNVYTATISGLKPGVDYTITVYAVTRFRDYQPISINYRTEIEKGSGCGSGSGSGSGSGSGSGSVSDVPRDLEVVAATPTSLLISWWAPVDRYQYYRITYGETGGNSPVQEFTVPRDVYTATISGLKPGVDYTITVYAVTDYKPHADGPHTYHESPISINYRTEHHHHHH in the records? 19.8

Could you tell me which pEGFR IC50 is on file for I1-GS10-E5(S62C) pegylated (designed binder, PEG on Cys at position 62 of E5 (position of SEQ ID NO: 1), also called I1-GS10-E5(S62C)(6)) MGVSDVPRDLEVVAATPTSLLISWSARLKVARYYRITYGETGGNSPVQEFTVPKNVYTATISGLKPGVDYTITVYAVTRFRDYQPISINYRTEIEKGSGSGSGSGSGSGSGSGSGSVSDVPRDLEVVAATPTSLLISWWAPVDRYQYYRITYGETGGNSPVQEFTVPRDVYTATICGLKPGVDYTITVYAVTDYKPHADGPHTYHESPISINYRTEHHHHHH ? 68.4

Field request: pEGFR IC50 | item: I1(S91C)-GS10-E5 pegylated (designed binder, PEG on Cys at position 91 of I1 (position of SEQ ID NO: 1), also called I1(S91C)-GS10-E5(7)) MGVSDVPRDLEVVAATPTSLLISWSARLKVARYYRITYGETGGNSPVQEFTVPKNVYTATISGLKPGVDYTITVYAVTRFRDYQPICINYRTEIEKGSGSGSGSGSGSGSGSGSGSVSDVPRDLEVVAATPTSLLISWWAPVDRYQYYRITYGETGGNSPVQEFTVPRDVYTATISGLKPGVDYTITVYAVTDYKPHADGPHTYHESPISINYRTEHHHHHH 22.7

Values compiled from patent US20180037631A1.
